- protocol-details: Selectivity index, ratio of IC50 for cytotoxicity against human HDF cells to IC50 for anticancer activity against human SK-OV-3 cells
- Assay type: cell-based
- assay-conditions: HDF cells versus SK-OV-3 cells, read-out: Ratio IC50
Would you kindly list selectivity ratio for each of these compounds?
Answers are plain numbers.

CO[C@H]1/C=C\C=C(/C)C(=O)NC2=CC(=O)C(NCc3cn([C@@H]4O[C@H](CO)[C@@H](O)[C@H](O)[C@H]4O)nn3)=C(C[C@@H](C)C[C@H](OC)[C@H](O)[C@@H](C)/C=C(\C)[C@@H]1OC(N)=O)C2=O
1.87
CO[C@H]1/C=C\C=C(/C)C(=O)NC2=CC(=O)C(NCc3cn([C@@H]4O[C@H](CO)[C@H](O)[C@H](O)[C@H]4O)nn3)=C(C[C@@H](C)C[C@H](OC)[C@H](O)[C@@H](C)/C=C(\C)[C@@H]1OC(N)=O)C2=O
1.87

// CO[C@H]1/C=C\C=C(/C)C(=O)NC2=CC(=O)C(NCc3cn(Cc4ccc(Br)cc4)nn3)=C(C[C@@H](C)C[C@H](OC)[C@H](O)[C@@H](C)/C=C(\C)[C@@H]1OC(N)=O)C2=O : selectivity ratio value = 2.41

###

- Tested on: PC-3
- protocol-details: Anticancer activity against human PC-3 cells assessed as cell growth inhibition incubated for 72 hrs by SRB assay
- Format: functional, cell-based
- assay-conditions: Homo sapiens, PC-3, 72 h
Would you kindly list pIC50 for each of these compounds?
Give bare numbers, as −log10 of the molar value.

COC(=O)C[C@H]1O[C@@H](n2cc(CNC3=C4C[C@@H](C)C[C@H](OC)[C@H](O)[C@@H](C)/C=C(\C)[C@H](OC(N)=O)[C@@H](OC)/C=C\C=C(/C)C(=O)NC(=CC3=O)C4=O)nn2)[C@H](O)[C@@H](O)[C@@H]1O
5.88
CO[C@H]1/C=C\C=C(/C)C(=O)NC2=CC(=O)C(NCc3cn(C4CCCCCC4)nn3)=C(C[C@@H](C)C[C@H](OC)[C@H](O)[C@@H](C)/C=C(\C)[C@@H]1OC(N)=O)C2=O
5.98
CO[C@H]1/C=C\C=C(/C)C(=O)NC2=CC(=O)C(NCc3cn(Cc4ccc(C)cc4)nn3)=C(C[C@@H](C)C[C@H](OC)[C@H](O)[C@@H](C)/C=C(\C)[C@@H]1OC(N)=O)C2=O
6.07

// below: pIC50 requested for another compound
// CO[C@H]1/C=C\C=C(/C)C(=O)NC2=CC(=O)C(NCCn3cc(C(=O)O)nn3)=C(C[C@@H](C)C[C@H](OC)[C@H](O)[C@@H](C)/C=C(\C)[C@@H]1OC(N)=O)C2=O : pIC50 value = 6.06

###

- protocol-details: Selectivity index, ratio of IC50 for cytotoxicity against human HDF cells to IC50 for anticancer activity against human SK-OV-3 cells
- Assay type: cell-based
- assay-conditions: HDF cells versus SK-OV-3 cells, read-out: Ratio IC50
Would you kindly list selectivity ratio for each of these compounds?
Answers are plain numbers.

Recorded results for 4 compounds are shown here.
CO[C@H]1/C=C\C=C(/C)C(=O)NC2=CC(=O)C(NCc3cn(CC4CCOCC4)nn3)=C(C[C@@H](C)C[C@H](OC)[C@H](O)[C@@H](C)/C=C(\C)[C@@H]1OC(N)=O)C2=O
2
CO[C@H]1/C=C\C=C(/C)C(=O)NC2=CC(=O)C(NCc3cn(Cc4ccc(C)cc4)nn3)=C(C[C@@H](C)C[C@H](OC)[C@H](O)[C@@H](C)/C=C(\C)[C@@H]1OC(N)=O)C2=O
1.43
CO[C@H]1/C=C\C=C(/C)C(=O)NC2=CC(=O)C(NCCn3cc(-c4ccccn4)nn3)=C(C[C@@H](C)C[C@H](OC)[C@H](O)[C@@H](C)/C=C(\C)[C@@H]1OC(N)=O)C2=O
1.85
CO[C@H]1/C=C\C=C(/C)C(=O)NC2=CC(=O)C(NCCN=[N+]=[N-])=C(C[C@@H](C)C[C@H](OC)[C@H](O)[C@@H](C)/C=C(\C)[C@@H]1OC(N)=O)C2=O
2.17

Consider the following items and state reported selectivity ratio for each.
1. CO[C@H]1/C=C\C=C(/C)C(=O)NC2=CC(=O)C(NCCn3cc(C(=O)O)nn3)=C(C[C@@H](C)C[C@H](OC)[C@H](O)[C@@H](C)/C=C(\C)[C@@H]1OC(N)=O)C2=O
2. CO[C@H]1/C=C\C=C(/C)C(=O)NC2=CC(=O)C(NCc3cn([C@@H]4OC[C@@H](OC(C)=O)[C@H](OC(C)=O)[C@H]4OC(C)=O)nn3)=C(C[C@@H](C)C[C@H](OC)[C@H](O)[C@@H](C)/C=C(\C)[C@@H]1OC(N)=O)C2=O
3. CO[C@H]1/C=C\C=C(/C)C(=O)NC2=CC(=O)C(NCc3cn([C@@H]4O[C@H](COCc5ccccc5)[C@@H](OCc5ccccc5)[C@H](OCc5ccccc5)[C@H]4NC(C)=O)nn3)=C(C[C@@H](C)C[C@H](OC)[C@H](O)[C@@H](C)/C=C(\C)[C@@H]1OC(N)=O)C2=O
4. CO[C@H]1/C=C\C=C(/C)C(=O)NC2=CC(=O)C(NCc3cn(Cc4ccccc4I)nn3)=C(C[C@@H](C)C[C@H](OC)[C@H](O)[C@@H](C)/C=C(\C)[C@@H]1OC(N)=O)C2=O
5. CO[C@H]1/C=C\C=C(/C)C(=O)NC2=CC(=O)C(NCc3cn(Cc4ccccc4)nn3)=C(C[C@@H](C)C[C@H](OC)[C@H](O)[C@@H](C)/C=C(\C)[C@@H]1OC(N)=O)C2=O

1. 2.06
2. 1.23
3. 1.91
4. 2.49
5. 2.03
